The reported measurements were obtained from the supplement of paper PMC6757056.

The entries below are paired with their reported normalized RNA/DNA level without ligand (log10).
B1: library; a variant is named by its letters at N, in order (parent)
chain: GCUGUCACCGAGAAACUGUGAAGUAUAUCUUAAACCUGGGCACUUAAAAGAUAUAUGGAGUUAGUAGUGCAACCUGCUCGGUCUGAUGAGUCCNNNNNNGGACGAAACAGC

# Variants of: B1
# assayInfo: normalized RNA/DNA level without ligand (relative to sTRSVctl = 100) (log10 (% of sTRSVctl)); HEK293T; ligand: cyclic di-GMP (c-di-GMP-II aptamer); higher = less ribozyme self-cleavage, higher mRNA level
# conditions: reporter: mCherry (pCS4076), ligand present: no
readoutLabel: normalized RNA/DNA level without ligand (log10)

{"mutation": "UACUAA", "endpointValue": 1.71}
{"mutation": "CGACGC", "endpointValue": 1.74}
{"mutation": "CUACCU", "endpointValue": 1.59}
{"mutation": "ACAAUG", "endpointValue": 1.39}
{"mutation": "CGAACU", "endpointValue": 1.48}
{"mutation": "UUCCAC", "endpointValue": 1.79}
{"mutation": "AGGGCU", "endpointValue": 1.69}
{"mutation": "GCUUCU", "endpointValue": 1.74}
{"mutation": "AUACGU", "endpointValue": 1.67}
{"mutation": "GUAGGU", "endpointValue": 1.6}
{"mutation": "CGCGAU", "endpointValue": 1.58}
{"mutation": "ACAAUC", "endpointValue": 1.49}
{"mutation": "UCCCAU", "endpointValue": 1.71}
{"mutation": "CUACUG", "endpointValue": 1.64}
{"mutation": "CACCUU", "endpointValue": 1.48}
{"mutation": "UAGAAA", "endpointValue": 1.58}
{"mutation": "CAGUGG", "endpointValue": 1.68}
{"mutation": "UUCCCC", "endpointValue": 1.84}
{"mutation": "GAUGAC", "endpointValue": 1.65}
{"mutation": "UGGUGG", "endpointValue": 1.68}
{"mutation": "UAGACG", "endpointValue": 1.71}
{"mutation": "ACCGCU", "endpointValue": 1.7}
{"mutation": "CUCCGG", "endpointValue": 1.79}
{"mutation": "GUUCGC", "endpointValue": 1.83}
{"mutation": "AUCAUU", "endpointValue": 1.7}
{"mutation": "UAUUCU", "endpointValue": 1.75}
{"mutation": "UUACAU", "endpointValue": 1.68}
{"mutation": "UUGGAG", "endpointValue": 1.6}
{"mutation": "GCAUGC", "endpointValue": 1.68}
{"mutation": "GAGUCU", "endpointValue": 1.8}
{"mutation": "CACCUA", "endpointValue": 1.36}
{"mutation": "GGGUGC", "endpointValue": 1.75}
{"mutation": "CACGUC", "endpointValue": 1.73}
{"mutation": "GCUGCU", "endpointValue": 1.68}
{"mutation": "CGCGUU", "endpointValue": 1.67}
{"mutation": "AAGGAA", "endpointValue": 1.35}
{"mutation": "GCUGGG", "endpointValue": 1.56}
{"mutation": "GUGCGU", "endpointValue": 1.69}
{"mutation": "CACGAA", "endpointValue": 1.33}
{"mutation": "UCGCUG", "endpointValue": 1.69}
{"mutation": "GUAAGC", "endpointValue": 1.58}
{"mutation": "CACCAA", "endpointValue": 1.4}
{"mutation": "AGAUAG", "endpointValue": 1.53}
{"mutation": "AGUCUA", "endpointValue": 1.55}
{"mutation": "AACCAC", "endpointValue": 1.67}
{"mutation": "UAGCGA", "endpointValue": 1.61}
